FYI, the data here is from the OPERA property sets (Mansouri et al. 2018).

attribute_measured: logP
Numbers only.

Example cases with answers are listed next.
Cc1cc(O)ccc1[N+](=O)[O-] = 2.48
CCC(C)c1ccc(O)c([N+](=O)[O-])c1 (centres undefined) = 3.84

List the reported logP of each compound below.
1. COc1ccc(O)c([N+](=O)[O-])c1
2. O=[N+]([O-])c1ccc(F)cc1O

Data returned:
1: 2.02; 2: 1.91

* * *

attribute_measured: logP
One number for each entry.

List the reported logP of each molecule below.
1. Cc1ccc([N+](=O)[O-])c(O)c1
2. Cc1cc(O)c([N+](=O)[O-])cc1Cl
3. O=[N+]([O-])c1cc(C(F)(F)F)ccc1O

Data returned:
1. 2.31
2. 2.93
3. 2.34

List the reported logP of each molecule below.
1. O=[N+]([O-])c1cc(Cl)ccc1O
2. O=Cc1ccc(O)c([N+](=O)[O-])c1
3. O=[N+]([O-])c1cc(-c2ccccc2)ccc1O
4. Cc1cccc(O)c1[N+](=O)[O-]

Data returned:
[2.46, 1.48, 3.71, 2.29]

* * *

condition_description: 20 °C
attribute_measured: solubility (µM)
Numbers only, in µM.

O=Cc1ccc(O)c([N+](=O)[O-])c1 = 1120
O=[N+]([O-])c1ccc(O)cc1 = 83400
O=[N+]([O-])c1cc(Cl)ccc1O = 812
Cc1ccc([N+](=O)[O-])c(O)c1 = 1780
Cc1cc(O)c([N+](=O)[O-])cc1Cl = 40.7
O=[N+]([O-])c1cc(-c2ccccc2)ccc1O = 38.9

List the reported solubility of each compound below.
1. Cc1cc(O)ccc1[N+](=O)[O-]
2. CCC(C)c1ccc(O)c([N+](=O)[O-])c1 (centres undefined)

Data returned:
[7760, 144]

Data request: // query solubility value for entry `COc1ccc(O)c([N+](=O)[O-])c1`
Data returned: 1450
